Test: SEC-HPLC % monomer
Type: physicochemical
Conditions: optimized antibodies
assayMetric: SEC-HPLC, % monomer (%)
Please respond with the number in % and leave the unit unwritten.

Some solved entries appear below for comparison.
1) ADI-71722: anti-IL18-BP antibody, sequences in FIG. 2D; 66670 lineage (antibody, V domains shown) VH: QVQLVQSGAEVKKPGSSVKVSCKASGGTFSEYPISWVRQAPGQGLEWMGGIIPGAGTAIYAQKFQGRVTITADESTSTAYMELSSLRSEDTAVYYCARGRHFHETWGQGTLVTVSS VL: DIQMTQSPSSVSASVGDRVTITCRASQGISSWLAWYQQKPGKAPKLLIYAASSLQSGVPSRFSGSGSGTDFTLTISSLQPEDFATYYCQQVYRFPWTFGGGTKVEIK    95.9
2) ADI-71709: anti-IL18-BP antibody, sequences in FIG. 2A; 66650 lineage (antibody, V domains shown) VH: QVQLVQSGAEVKKPGASVKVSCEASGYTFDIYAVHWVRQAPGQRLEWMGWIHAGTGATKYSQKFQGRVTITRDTSASTAYMELSSLRSEDTAVYYCARGLGEVGPTGTSWFDPWGQGTLVTVSS VL: DIQMTQSPSTLSASVGDRVTITCRASQSISSWLAWYQQKPGKAPKLLIYEASSLESGVPLRFSGSGSGTEFTLTISSLQPDDFATYYCQQYRQSPFTFGGGTKVEIK    97.6
3) ADI-71720: anti-IL18-BP antibody, sequences in FIG. 2C; 66670 lineage (antibody, V domains shown) VH: QVQLVQSGAEVKKPGSSVKVSCKASGGTFSEYVISWVRQAPGQGLEWMGGIIPGAGTANYAQKFQGRVTITADESTSTAYMELSSLRSEDTAVYYCARGRHSHETWGQGTLVTVSS VL: DIQMTQSPSSVSASVGDRVTITCRASQGISSWLAWYQQKPGKAPKLLIYAASSLQSGVPSRFSGSGSGTDFTLTIGSLQPEDFATYYCQQVYSLPWTFGGGTKVEIK    98.6
4) ADI-71710: anti-IL18-BP antibody, sequences in FIG. 2I; 66650 lineage (antibody, V domains shown) VH: QVQLVQSGAEVKKPGASVKVSCKASGYTFGIYAMHWVRQAPGQRLEWMGWIHAGTGVTKYSQKFQGRVTITRDTSASTAYMELSSLRSEDTAVYYCARGLGEVGPTGTSWFDPWGQGTLVTVSS VL: DIQMTQSPSTLSASVGDRVTITCRASQSISSWLAWYQQKPGKAPKLLIYEASSLESGVPSRFSGSGSGTEFTLTISSLQPDDFATYYCQQYRYSPFTFGGGTKVEIK    97.9
5) ADI-71753: anti-IL18-BP antibody, sequences in FIG. 2S (antibody, V domains shown) VH: QLQLQESGPGLVKPSETLSLTCTVSGGSIFSSDYYWSWIRQPPGKGLEWIGVIAYSGSTYYNPSLKSRVTISVDTSKNQFSLKLSSATAADTAVYYCARGPFRQVFDYWGQGTLVTVSS VL: DIQMTQSPSSVSASVGDRVTITCRASQGISSWLAWYQQKPGKAPKLLIYAASSLQSGVPSRFSGSGSGTDFTLTISSLQPEDFATYYCQQGSSFPYTFGGGTKVEIK    96.9
6) ADI-71744: anti-IL18-BP antibody, sequences in FIG. 2R (antibody, V domains shown) VH: QLQLQESGPGLVKPSETLSLTCTVSGGSISSSEYGWGWIRQPPGKGLEWIGSIVNSGSTYYNPSLKSRVTISVDTSKNQFSLKLSSVTAADTAVYYCARGPYRQVFDYWGQGTLVTVSS VL: DIQMTQSPSSVSASVGDRVTITCRASQGISSWLAWYQQKPGKAPKLLIYAASSLQSGVPSRFSGSGSGTDFTLTISSLQPEDFATYYCQQGWSFPYTFGGGTKVEIK    88.1
7) ADI-71707: anti-IL18-BP antibody, sequences in FIG. 2M; 66650 lineage (antibody, V domains shown) VH: QVQLVQSGAEVKKPGASVKVSCKASGYTFRHYAMHWVRQAPGQRLEWMGWIHAGTGNTLYSQKFQGRVTITRDTSASTAYMELSSLRSEDTAVYYCARGLGEVGPTGTSWFDPWGQGTLVTVSS VL: DIQMTQSPSTLSASVGDRVTITCRASQSISSWLAWYQQKPGKAPKLLIYEASSLESGVPSRFSGSGSGTEFTLTISSLQPDDFATYYCQQYRLGPFTFGGGTKVEIK    98.8

Note: attention shifts to another entry.
Given the entry ADI-71663: anti-IL18-BP antibody, sequences in FIG. 2F; 66692 lineage (antibody, V domains shown) VH: EVQLLESGGGLVQPGGSLRLSCAASGFTFGNTAMSWVRQAPGKGLEWVSAISANAGSTYYADSVKGRFTISRDNSKNTLYLQMNSLRAEDTAVYYCAKGPDRQVFDYWGQGTLVTVSS VL: DIQMTQSPSSVSASVGDRVTITCRASQGISSWLAWYQQKPGKAPKLLIYAASSLQSGVPSRFSGSGSGTDFTLTISSLQPEDFATYYCQHALFFPYTFGGGTKVEIK , report its measured SEC-HPLC, % monomer.
93.9
